- ASSAYED SYSTEM: recombinant pentameric gH complex (Towne strain) (human cytomegalovirus, Towne strain) (UniProt P17176)
- Sequence (P17176 30-715, one chain of several): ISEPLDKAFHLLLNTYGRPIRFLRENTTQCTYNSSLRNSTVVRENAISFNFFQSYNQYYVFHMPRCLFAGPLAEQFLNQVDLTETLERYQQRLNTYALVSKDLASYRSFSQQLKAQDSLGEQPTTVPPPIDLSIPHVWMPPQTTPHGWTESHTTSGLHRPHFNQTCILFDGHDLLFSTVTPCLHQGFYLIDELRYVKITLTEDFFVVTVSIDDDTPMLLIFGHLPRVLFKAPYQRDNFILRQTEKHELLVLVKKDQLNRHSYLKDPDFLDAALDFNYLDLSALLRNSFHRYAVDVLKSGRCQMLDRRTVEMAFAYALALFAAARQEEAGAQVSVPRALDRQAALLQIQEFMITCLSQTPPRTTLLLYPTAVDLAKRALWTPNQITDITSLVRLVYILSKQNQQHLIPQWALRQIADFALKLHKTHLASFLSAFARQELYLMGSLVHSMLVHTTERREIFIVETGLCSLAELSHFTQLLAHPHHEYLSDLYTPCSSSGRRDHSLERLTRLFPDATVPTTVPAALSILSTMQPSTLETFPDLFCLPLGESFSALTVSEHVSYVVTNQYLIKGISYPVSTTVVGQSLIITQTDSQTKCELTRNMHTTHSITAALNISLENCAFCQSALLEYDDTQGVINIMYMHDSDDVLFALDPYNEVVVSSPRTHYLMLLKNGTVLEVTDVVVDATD
- PROTOCOL NOTES: BLI competition on His-pentamer; competitor (antibody 2): 2-18
REPORTED PROPERTY: Pair-wise inhibition (%)
Provide only the numeric value, understood in %.

BINDER	OBSERVED MEASUREMENT
3-7 (antibody, V domains shown) VH: QVQLVQSGAEVKKPGASVKVSCKTSGYTFNTYAISWVRQAPGQGLEWVGWINTYSGSTKYAQKVQGRVTMTTDTSTSTAYMELRGLRSDDTAVYYCARDGYNWGFLDFWGQGSLVTVSS VL: DIQMTQSPSSLSASVGDRVTITCRASQGISNYLAWYQQKPGKLPKLLIYAASTLQSGVPSRFSGSGSGTDFTLTISSLQPEDVASYYCQKYNSAPLTFGPGTKVDIK	51

# evaluate next
Data request: Give the measured Pair-wise inhibition (%) of 3-16 (antibody, V domains shown) VH: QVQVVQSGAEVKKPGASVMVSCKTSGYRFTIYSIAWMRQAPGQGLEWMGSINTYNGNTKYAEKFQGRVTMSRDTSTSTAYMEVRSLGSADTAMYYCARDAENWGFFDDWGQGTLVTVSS VL: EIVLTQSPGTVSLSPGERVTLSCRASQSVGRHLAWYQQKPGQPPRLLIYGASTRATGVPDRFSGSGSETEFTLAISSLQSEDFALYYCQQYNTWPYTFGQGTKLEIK .
Data returned: -17
